assay: qHTS for Activators of Integrin-Mediated Alleviation for Muscular Dystrophy; conditions: alpha7betagal myoblasts, beta-gal FDG fluorescence, 48 h; series mostly up to 38.3 µM; also: nearly all actives have a fitted effect of over 60% in size
About 220 (0.063%) of roughly 350,000 compounds were called active. About 4% were inconclusive and are not listed. Calls follow the shape of the dose curve; as a rule, active = well fitted activation curve with a large enough effect; inconclusive = small, poorly fitted or top-dose-only effect; inactive = no such curve, though single readings can be large or run the other way. Only a selection was taken, and actives are over-represented in it overall.
Outcome codes: t for active, f for inactive

O=Cc1cn(Cc2ccc(F)cc2Cl)c2ccccc12 :: t
Cc1ccc(Oc2cnn(-c3ccccc3)c(=O)c2Br)cc1 :: f
CC(=O)c1ccc(S(=O)(=O)N2CCN(c3nc4c(C)c(C)ccc4cc3C#N)CC2)cc1 :: f
O=c1[nH]c(=S)[nH]c(O)c1/C=C1\C=Nc2ccccc21 :: f
CCOC(=O)c1cccc(C2=C(CNC(=O)c3ccncc3)[C@H]3CC[C@@H](C2)N3Cc2ccccc2)c1 :: f
